target: rat lung glucocorticoid receptor (Rattus norvegicus, UniProt P06536); construct: Immediately after resection of the lungs, the tissue was frozen in ice; The cytosol was prepared; from tissue; host or cells: lung cytosol of adrenalectomized male Sprague-Dawley rats; assay: Receptor binding studies ([3H]triamcinolone acetonide displacement); conditions: with respect to dexamethasone (RBA = 100); with Δ1-cortienic acid
Sequence (P06536 whole entry): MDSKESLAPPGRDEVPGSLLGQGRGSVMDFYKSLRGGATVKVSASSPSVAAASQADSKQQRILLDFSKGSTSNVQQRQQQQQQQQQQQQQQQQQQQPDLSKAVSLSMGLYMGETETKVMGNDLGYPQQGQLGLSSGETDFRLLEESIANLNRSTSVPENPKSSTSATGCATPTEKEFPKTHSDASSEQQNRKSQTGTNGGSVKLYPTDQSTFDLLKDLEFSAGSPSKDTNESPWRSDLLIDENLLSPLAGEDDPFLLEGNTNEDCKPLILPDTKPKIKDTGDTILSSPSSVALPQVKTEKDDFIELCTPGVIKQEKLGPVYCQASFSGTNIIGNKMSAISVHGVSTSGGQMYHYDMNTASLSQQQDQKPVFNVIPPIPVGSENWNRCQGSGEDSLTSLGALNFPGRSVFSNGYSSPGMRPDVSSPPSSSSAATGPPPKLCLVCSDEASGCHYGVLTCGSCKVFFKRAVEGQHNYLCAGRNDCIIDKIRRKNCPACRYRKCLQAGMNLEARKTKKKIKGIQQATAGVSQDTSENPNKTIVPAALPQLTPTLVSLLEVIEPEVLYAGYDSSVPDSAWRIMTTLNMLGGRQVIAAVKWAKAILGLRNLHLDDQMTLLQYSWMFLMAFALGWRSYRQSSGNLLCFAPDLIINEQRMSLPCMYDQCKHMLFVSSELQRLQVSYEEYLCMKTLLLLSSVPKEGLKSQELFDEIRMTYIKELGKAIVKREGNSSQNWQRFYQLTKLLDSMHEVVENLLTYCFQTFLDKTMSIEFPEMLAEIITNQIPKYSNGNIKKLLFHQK
Exercise: for every item that follows, state its recorded Relative binding affinity (RBA).
Please respond with just the number, no unit label.

IN: Can you share its Relative binding affinity (RBA)? I mean this compound: COC(=O)[C@@]1(OC(=O)C(Cl)Cl)[C@H](C)C[C@H]2[C@@H]3CCC4=CC(=O)C=C[C@]4(C)[C@@]3(F)[C@@H](O)C[C@@]21C [Compound I]
OUT: 495

IN: Returns the measured Relative binding affinity (RBA) for the input compound. Input: C[C@]12C=CC(=O)C=C1CC[C@@H]1[C@@H]2[C@@H](O)C[C@@]2(C)[C@H]1CC[C@]2(OC(=O)C(Cl)Cl)C(=O)OCCl [Compound D]
OUT: 684

IN: Data request, read-out Relative binding affinity (RBA), for COC(=O)[C@@]1(OC(=O)C(Cl)Cl)CC[C@H]2[C@@H]3CCC4=CC(=O)C=C[C@]4(C)[C@H]3[C@@H](O)C[C@@]21C [Compound A]
OUT: 165

IN: May I ask what Relative binding affinity (RBA) has been recorded for CC1(C)O[C@@H]2C[C@H]3[C@@H]4CCC5=CC(=O)C=C[C@]5(C)[C@@]4(F)[C@@H](O)C[C@]3(C)[C@]2(C(=O)CO)O1 [Triamcinolone acetonide, reference compound] ?
OUT: 628

IN: Returns the measured Relative binding affinity (RBA) for the input compound. Input: CCOC(=O)[C@@]1(OC(=O)C(Cl)Cl)CC[C@H]2[C@@H]3CCC4=CC(=O)C=C[C@]4(C)[C@H]3[C@@H](O)C[C@@]21C [Compound B]
OUT: 204

IN: Need Relative binding affinity (RBA) of CC(C)OC(=O)[C@@]1(OC(=O)C(Cl)Cl)CC[C@H]2[C@@H]3CCC4=CC(=O)C=C[C@]4(C)[C@H]3[C@@H](O)C[C@@]21C [Compound C] , thanks.
OUT: 117
